test system: human non-small cell lung cancer A549 cell line; experiment: Cytotoxicity assay (resazurin cell viability); assay type: cell-based; conditions: A549 cells, 72 hours incubation, resazurin assay, DOX equivalent
Measure Name: pIC50
Note on units: pIC50 is unitless, being -log10 of a concentration expressed in mol/L.

Any idea what pIC50 was measured for COc1cccc2c1C(=O)c1c(O)c3c(c(O)c1C2=O)C[C@@](O)(C(=O)CO)C[C@@H]3O[C@H]1C[C@H](N)[C@H](O)[C@H](C)O1.Cl [Free DOX, doxorubicin hydrochloride] ? 6.28
